# study target: Hypoxanthine-guanine phosphoribosyltransferase (Homo sapiens, UniProt P00492)
# Sequence (P00492 whole entry): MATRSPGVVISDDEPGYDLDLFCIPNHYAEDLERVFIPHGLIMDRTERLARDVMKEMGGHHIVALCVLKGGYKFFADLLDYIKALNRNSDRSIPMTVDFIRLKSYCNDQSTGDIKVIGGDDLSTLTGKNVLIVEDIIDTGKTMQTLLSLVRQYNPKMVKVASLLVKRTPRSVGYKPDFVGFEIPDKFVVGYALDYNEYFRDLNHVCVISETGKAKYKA
# protocol notes: Inhibition of human recombinant HGPRT at pH 8.5 by spectrophotometric assay
# experimental parameters: read-out: Ki
property label: Ki (µM)
The reply should contain only the number, in µM.

1) Nc1nc2c(c(=O)[nH]1)NCN2CC(CF)OCP(=O)(O)O (racemic)    22.7
2) Nc1nc2c(c(=O)[nH]1)NCN2C[C@H]1COP(=O)(O)CO1    115
3) Nc1nc2c(c(=O)[nH]1)NCN2C[C@@H]1COP(=O)(O)CO1    12.3
4) O=c1[nH]cnc2c1NCN2CCOCP(=O)(O)O    182

Ask: So what does the record say about Ki for `Nc1nc2c(c(=O)[nH]1)NCN2CCOCP(=O)(O)O` ?
Reply: 55.9

---

# study target: Hypoxanthine-guanine phosphoribosyltransferase (Homo sapiens)
# protocol notes: Inhibition of human recombinant HGPRT at pH 7.4 by spectrophotometric assay
property label: Ki

# count of solved cases: 4
1) Nc1nc2c(c(=O)[nH]1)NCN2CCOCCP(=O)(O)O    1 µM
2) Nc1nc2c(c(=O)[nH]1)NC(Br)N2CCOCP(=O)(O)O (stereo not given)    > 400 µM
3) CC(C)CCCCCOP(=O)(O)COCCN1CNc2c1nc(N)[nH]c2=O    > 1000 µM
4) CC(C)OP(=O)(O)COCCN1CNc2c1nc(N)[nH]c2=O    140 µM

Ask: Param readout= Ki; system= Hypoxanthine-guanine phosphoribosyltransferase (Homo sapiens); entry= C[C@@H](CN1c2nc(N)[nH]c(=O)c2NC1Br)OCP(=O)(O)O (stereo not given in full) ; returns value.
Reply: > 300 µM

Ask: Param readout= Ki; system= Hypoxanthine-guanine phosphoribosyltransferase (Homo sapiens); entry= `Nc1nc2c(c(=O)[nH]1)NCN2C[C@H]1COP(=O)(O)CO1` ; returns value.
Reply: 90 µM

Ask: Param readout= Ki; system= Hypoxanthine-guanine phosphoribosyltransferase (Homo sapiens); entry= `O=c1[nH]cnc2c1NCN2CCOCCP(=O)(O)O` ; returns value.
Reply: 3.6 µM

Ask: Param readout= Ki; system= Hypoxanthine-guanine phosphoribosyltransferase (Homo sapiens); entry= `Nc1nc2c(c(=O)[nH]1)NCN2CCOCP(=O)(O)O` ; returns value.
Reply: 29 µM

Ask: Param readout= Ki; system= Hypoxanthine-guanine phosphoribosyltransferase (Homo sapiens); entry= `Nc1nc2c(c(=S)[nH]1)NCN2CCOCP(=O)(O)O` ; returns value.
Reply: > 1000 µM

Ask: Param readout= Ki; system= Hypoxanthine-guanine phosphoribosyltransferase (Homo sapiens); entry= `Nc1nc2c(c(=O)[nH]1)NCN2C[C@@H]1COP(=O)(O)CO1` ; returns value.
Reply: 19 µM

Ask: Param readout= Ki; system= Hypoxanthine-guanine phosphoribosyltransferase (Homo sapiens); entry= Nc1nc2c(c(=O)[nH]1)NC(O)N2CCOCP(=O)(O)O (stereo not given) ; returns value.
Reply: 68 µM

Ask: Param readout= Ki; system= Hypoxanthine-guanine phosphoribosyltransferase (Homo sapiens); entry= C[C@H](CN1c2nc(N)[nH]c(=O)c2NC1Br)OCP(=O)(O)O (stereo not given in full) ; returns value.
Reply: 41 µM

Ask: Param readout= Ki; system= Hypoxanthine-guanine phosphoribosyltransferase (Homo sapiens); entry= `O=c1[nH]cnc2c1CNN2CCOCP(=O)(O)O` ; returns value.
Reply: 4.3 µM

Ask: Param readout= Ki; system= Hypoxanthine-guanine phosphoribosyltransferase (Homo sapiens); entry= `C[C@@H](CN1NNc2c1nc(N)[nH]c2=O)OCP(=O)(O)O` ; returns value.
Reply: 15 µM

Ask: Param readout= Ki; system= Hypoxanthine-guanine phosphoribosyltransferase (Homo sapiens); entry= `Nc1nc2c(c(=O)[nH]1)NNN2CCOCP(=O)(O)O` ; returns value.
Reply: 175 µM

Source of measurements: ChEMBL document CHEMBL1158457
